# Assayed system: tRNA (guanine-N(1)-)-methyltransferase (Haemophilus influenzae (strain ATCC 51907 / DSM 11121 / KW20 / Rd))
# Sequence (P43912 whole entry): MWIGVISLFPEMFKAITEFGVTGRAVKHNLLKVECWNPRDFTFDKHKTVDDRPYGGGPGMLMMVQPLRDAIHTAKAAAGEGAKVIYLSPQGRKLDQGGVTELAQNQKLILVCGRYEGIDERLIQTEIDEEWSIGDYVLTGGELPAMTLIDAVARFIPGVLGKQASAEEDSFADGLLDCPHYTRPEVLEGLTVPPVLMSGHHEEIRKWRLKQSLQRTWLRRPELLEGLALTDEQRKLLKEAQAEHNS
# Protocol text: ScintillationProximity_Assay
Readout: log10 IC50 (log10 of the value in µM)
Remember, log10 of IC50, in µM.

Illustrative cases are given below, each with its answer.
Compound | log10 IC50
NC(=O)c1cnc(NC2CCCC2)nc1N [GTC000464A] | -0.20
CN(C)c1cccc(CNc2ccc(C(N)=O)cn2)c1 [GTC000453A] | 0.60
CC(C)(C)c1cccc(C(=O)NCC2(NC(=O)c3cccc4nocc34)CCCCC2)c1 [GTC000449A] | -2.30
Cc1cccc(C(=O)NCCC2(CNc3ccc(C(N)=O)cn3)CCCCC2)c1 [GTC000461A] | 0.90
Nc1nonc1C(=O)NCC1CCCCC1 [GTC000462A] | 0.30
NC(=O)c1ccc(NCc2ccccc2)nc1 [GTC000444A] | 0.50
NC(=O)c1ccc(NCc2cccc(O)c2)nc1 [GTC000452A] | 0.30
CN1CCN(C(=O)c2nonc2N)CC1 [GTC000472A] | 2.00

Recorded result, CN1CCN(c2ccccc2CNc2ccc(C(N)=O)cn2)CC1 [GTC000471A] , log10 IC50: -0.10

Recorded result, `c1cc(-c2c[nH]cn2)ccn1` , log10 IC50: 2.20

Recorded result, NC(=O)c1ccc(NC2CCC(c3ccccc3)C2)nc1 (stereo not given) [GTC000467A] , log10 IC50: -0.20

Recorded result, NC[C@H]1CCC[C@@H](CNc2ccc(C(N)=O)cn2)C1 [GTC000469A] , log10 IC50: -0.30

Recorded result, NC(=O)c1ccc(NCc2ccccc2O)nc1 [GTC000459A] , log10 IC50: 0.10

Recorded result, Nc1nonc1C(=O)N[C@@H]1CC[C@H](O)C1 [GTC000456A] , log10 IC50: 0.90

Recorded result, NC(=O)c1ccc(NC2CCCC2)nc1 [GTC000457A] , log10 IC50: -0.70
